# System: SNB-78
# EXPERIMENTAL PROTOCOL: NCI tumour cell line growth inhibition, 48 h
Activity calls are given as the source filed them. No stated cut-off is given here; in the data, active = GI50 up to about 1.1 µM and inactive = higher.
ASSAY READOUT: GI50

Look over these answered cases.
>>> recorded_result("O=C(c1ccccc1)C1OC12C(=O)Nc1ccccc12 (stereo not drawn)")
"43.5 µM (inactive)"
>>> recorded_result("S=c1sc2c(s1)SC(c1ccccc1)CS2 (stereo not drawn)")
"> 100 µM (inactive)"
>>> recorded_result("CN(O)C(=O)Cc1ccccc1")
"> 100 µM (inactive)"
>>> recorded_result("OC1=CN=C(c2ccccc2)Oc2ccccc21")
"80.4 µM (inactive)"

Return reported GI50. Input compound: `CN(C)[C@@H]1C(O)=C(C(=O)NCNc2nc3[nH]nnc3c(=O)[nH]2)C(=O)[C@@]2(O)C(O)=C3C(=O)c4c(O)cccc4[C@@](C)(O)[C@H]3C[C@@H]12`
1.81 µM (inactive)

State its GI50: Nc1ncnc2c1ncn2C1CC(OCc2ccccc2[N+](=O)[O-])C(CO)O1 (stereo not drawn)
18.2 µM (inactive)

Quote GI50 reported for `CCOC(=O)CCn1ncc(Cl)c(Cl)c1=O` please.
6.22 µM (inactive)

Query GI50 for `NCCCCN(CCCN)/[N+]([O-])=N\O`
> 100 µM (inactive)

Please give the documented GI50 of `COc1cc(Nc2cnc3ccc(C(F)(F)F)cc3n2)cc(OC)c1OC`
> 100 µM (inactive)

Annotate the compound `COc1ccc(OC)c(/C=C/[N+](=O)[O-])c1` with its measured GI50.
6.84 µM (inactive)

Specify measured GI50 for `O=C(NCC(=O)N1CCOC1=O)OCc1ccccc1` .
> 100 µM (inactive)

Tell me GI50 reported for `Cc1cc(N(CCC#N)CCC#N)ccc1/C=C1\N=C(c2cc([N+](=O)[O-])ccc2Cl)N(c2cccc(Cl)c2)C1=O`
> 100 µM (inactive)

Quick one: give measured GI50 for CCCCOC1CC2(c3ccc(OC)cc3)C(=O)c3ccccc3N2O1 (stereo not drawn)
> 10 µM (inactive)

// fetch GI50 given entry `O=C(c1ccccn1)c1nc(-c2ccc(Cl)c(Cl)c2)nc2ccc(Cl)cc12`
> 100 µM (inactive)

Please supply the value of reported GI50 for the item `N/C(=N\O)N/N=C\c1ccc(O)c(O)c1O`
> 51.3 µM (inactive)

Kindly indicate its recorded GI50. Item: `COC(=O)Cc1cc(O)c2c(c1O)C(=O)c1ccccc1C2=O`
37.6 µM (inactive)

Return GI50 (reported value) for this compound: COCOC1CCCC[C@@]1(OCCOCCO[C@@]1(c2ccccc2)CCCC[C@H]1OCOC)c1ccccc1 (stereo partly drawn)
55.3 µM (inactive)

For the compound O=C(Nc1cccc([N+](=O)[O-])c1)C(=O)C(C(=O)c1ccccc1F)C1OC(=O)C2C=CC=CC21 (stereo not drawn) , report GI50.
36.6 µM (inactive)

Give reported GI50 value for COc1cc2c(c(OC)c1OC)-c1ccc(OC)c(=O)cc1C(NC(=O)c1ccc(N=[N+]=[N-])cc1)CC2 (stereo not drawn)
0.03 µM (active)

----------
This section presents molecules with their documented GI50 values.
# Test system: SK-MEL-2
# EXPERIMENTAL PROTOCOL: NCI tumour cell line growth inhibition, 48 h
Active and inactive are the calls of the source. Rule as the data show it: active = GI50 up to about 1.1 µM and inactive = higher.

Sample records with GI50:
>>> recorded_result("CCc1cn2c(/C=N/N=C(N)N)c(-c3cc(C)c(Cl)cc3Cl)nc2s1")
"1.82 µM (inactive)"
>>> recorded_result("Cc1cc(N(C)c2ccccc2)nc(N(C)c2ccccc2)n1")
"15.8 µM (inactive)"
>>> recorded_result("Cc1ccc(NC(=O)CC(=O)N2N=C(N(c3ccccc3)c3ccccc3)CC2c2ccccc2)cc1 (configuration not stated)")
"> 100 µM (inactive)"
>>> recorded_result("CC(=O)Nc1nc(NC(C)=O)c2nc(CO)[nH]c2n1")
"> 100 µM (inactive)"
>>> recorded_result("O=c1[nH]c(=O)n(C2CC(O)C(CO)O2)cc1C#Cc1ccc(F)cc1 (configuration not stated)")
"> 100 µM (inactive)"

Give reported GI50 for `COc1ccc(/C=C/C(=O)c2cc(OC)cc(OC)c2)cc1` (SK-MEL-2)
18.7 µM (inactive)

----------
# GI50 annotations
# Tested on: SK-OV-3
# EXPERIMENTAL PROTOCOL: NCI tumour cell line growth inhibition, 48 h
The source made the active and inactive calls. Rule as the data show it: active = GI50 up to about 1.1 µM and inactive = higher.

Sample answers from the record:
>>> recorded_result("CCC(=O)N1C(=O)C(CC)(CC)C(=O)N1C(=O)CC")
"> 100 µM (inactive)"
>>> recorded_result("COc1cc([N+](=O)[O-])ccc1N1C(=O)C2c3[nH]c4ccccc4c3C3CCC(C(C)(C)C)CC3C2C1=O (stereo not given)")
"> 100 µM (inactive)"
>>> recorded_result("COc1cc2c(c(OC)c1)C1(CC(CC#N)C2)SCCS1 (stereo not given)")
"> 100 µM (inactive)"
>>> recorded_result("O=[N+]([O-])c1ccc2[nH]ncc2c1Cl")
"53.5 µM (inactive)"
>>> recorded_result("CC1C(c2ccccc2)NC(c2ccccc2)CC1(N)C#N (stereo not given)")
"> 100 µM (inactive)"
>>> recorded_result("O=C(O)c1cc(=O)c2c(OCC(O)COc3cccc4oc(C(=O)O)cc(=O)c34)cccc2o1")
"> 72.9 µM (inactive)"

Look up and state reported GI50 for N#CC(c1ccccc1)N(CCc1ccccc1)C(=O)Oc1ccccc1 (stereo not given)
> 100 µM (inactive)

Note down GI50 recorded for O=C(NCP(=O)(O)O)c1cccnc1 [(NICOTINAMIDOMETHYL)PHOSPHONIC ACID]
> 100 µM (inactive)

State its GI50: COC(=O)C(=O)C(C#N)c1cccc2ccccc12 (stereo not given)
> 100 µM (inactive)

Note down GI50 recorded for `C[C@H]1C2Cc3cc(N)ccc3[C@@]1(C)CCN2CCc1ccccc1`
24 µM (inactive)

----------
# Tested on: MCF7
# EXPERIMENTAL PROTOCOL: NCI tumour cell line growth inhibition, 48 h
The source made the active and inactive calls. Cut-off read from the data, not from the text of the source: active = GI50 up to about 1.1 µM and inactive = higher.
Outcomes you can answer with include only these: active, inactive

Solved cases (4 shown):
>>> class("CN(C)CCNc1nc2c(c(=O)n(C)c(=O)n2C)n1C")
"inactive"
>>> class("CCNCCNc1c2ccccc2nc2ccccc12")
"active"
>>> class("CN1CCN(CCCCN2c3ccccc3Sc3ccc(C(=O)c4ccccc4)cc32)CC1")
"inactive"
>>> class("C=CCCC(On1c(-c2ccc(Cl)cc2)csc1=S)c1ccccc1 (stereo not given)")
"inactive"

Look up the recorded call for `O=C(NCCO)c1c(O)c2ccccc2[nH]c1=O` in this test.
inactive

Short answer needed: outcome of this test for `COC(=O)c1cc2c(cc1Cl)Sc1nnc(Nc3ccc(C)cc3)n1S2(=O)=O` ?
inactive

Outcome? O=C(O)C(Cc1ccccc1)NCc1c(O)ccc2c(-c3ccccc3)cc(=O)oc12 (stereo not given)
inactive

----------
Examples of compounds with documented GI50 follow.
# System: HOP-92
# EXPERIMENTAL PROTOCOL: NCI tumour cell line growth inhibition, 48 h
Calls of active or inactive are those of the source. No stated cut-off is given here; in the data, active = GI50 up to about 1.1 µM and inactive = higher.

Example cases with answers are listed next.
>>> recorded_result("CC(C)/C=C1\\CCC(CN(C)C)C1=O (configuration not stated)")
"1.31 µM (inactive)"
>>> recorded_result("Oc1ccccc1/C=N/c1ccc(-c2nc3ccccc3[nH]2)cc1")
"22.9 µM (inactive)"
>>> recorded_result("Oc1nc2ccccc2c2oc3ccccc3c12")
"23.2 µM (inactive)"

Give GI50 for the following compound: `Cc1ccc(-c2cc[n+]3c(n2)oc2ccccc23)cc1`
14.2 µM (inactive)

Hello, please tell me recorded GI50 for this one: `COc1ccc2c(C)cc(N/N=C(\C)C=O)nc2c1`
10.5 µM (inactive)

For the compound `C=CCOc1ccc(C(=N/NC(=O)c2ccccc2)/N=N/c2ccc([N+](=O)[O-])cc2)cc1OC` , give its measured GI50 value.
18.6 µM (inactive)

Check the records and state GI50 for `CC(C)(C)C1=CC(=C2C=Cc3ccccc3O2)C=C(C(C)(C)C)C1=O`
13.9 µM (inactive)

Input Cc1cccc2c1N(C(=O)/C=C\C(=O)O)C(c1c(C)[nH]c3ccccc13)C2 (configuration not stated) , output reported GI50.
22.5 µM (inactive)

Give the value of GI50 reported for the following: CCCCCCCCCCOCCOCCOCCOCCCCC(O)CCCCCCCC1=C[C@H](C)OC1=O (some centres not stated)
14.2 µM (inactive)

----------
# Test system: T47D
# EXPERIMENTAL PROTOCOL: NCI tumour cell line growth inhibition, 48 h
Activity calls are given as the source filed them. No stated cut-off is given here; in the data, active = GI50 up to about 1.1 µM and inactive = higher.
Your reply should match one of these outcome classes. TRUE = active, FALSE = inactive

Solved entries (count: 2):
>>> class("CC(=O)O[C@H]1[C@H](OC(C)=O)[C@@H](CN=[N+]=[N-])OCO[C@@H]1CN=[N+]=[N-]")
"FALSE"
>>> class("Cc1n[nH]c(=O)n1Nc1ccccc1")
"FALSE"

Could you check what this test reported for `CCOC(=O)C(C)(C(=O)OCC)/C(Cl)=C\Cl` ?
FALSE
